Measured inhibition of individual entries
# ASSAY_INFO: NOD1 signaling inhibitors, primary screen, cell-based, luminescence, uHTS (AID 1578);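 note: HEK-293T reporter cells stimulated with the NOD1 agonist gamma-tri-DAP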
# RUN_PARAMETERS: NOD1-driven NF-kB luciferase reporter cells, at 4 µM, hits give high values
Screen size: about 290,000 compounds; about 3,000 (1%) were called active. The sample holds actives, similar compounds and a random draw of the others, so the mix is not that of the screen.
METRIC_NAME: inhibition (%)

>>> value_measured("O=C(NCC1CCCO1)c1cc2ccccc2nc1Cl (configuration not stated)")
-20.2
>>> value_measured("Cc1nn(-c2ccc(Cl)c(Cl)c2)c(C)c1C(=O)O")
-17.4
>>> value_measured("COc1ccccc1N1CCN(C(=O)C(C)N(c2ccc(C)cc2)S(C)(=O)=O)CC1 (configuration not stated)")
-7.9
>>> value_measured("COc1ccc(OCC(=O)NCCCn2ccnc2)cc1")
9.1
>>> value_measured("O=C(COc1ccc(Cl)cc1)NCCCn1ccnc1")
-7.5
>>> value_measured("Cc1cc(C(=O)COC(=O)c2ccc(O)cc2)c(C)n1CC1COc2ccccc2O1 (configuration not stated)")
-9.9
>>> value_measured("CC(NS(=O)(=O)c1ccc(Br)cc1)c1ccccc1 (configuration not stated)")
-16.8
>>> value_measured("COCCCn1c(SCCc2ccccc2)nc2cc(OC)c(OC)cc2c1=N")
49.8
>>> value_measured("CC(C)C1Nc2ccc(C(=O)NC3CCCCC3)cc2NC1=O (configuration not stated)")
-43.7
>>> value_measured("CC(=O)Nc1ccc(NC(=O)CSc2nc(N)c(NC(=O)c3ccco3)c(=O)[nH]2)cc1")
-35.9
>>> value_measured("O=C(COc1ccc(Br)cc1)NCCCn1ccnc1")
62.4
>>> value_measured("Fc1cnc(N2CCN(c3ccccc3)CC2)nc1N1CCN(c2ccccc2)CC1")
43.3
>>> value_measured("COc1ccc(CCn2c(C)cc(C(=O)CSc3nnnn3-c3ccccc3)c2C)cc1OC")
-55.4
>>> value_measured("CCOC(=O)N1CCC(NC(=O)c2ccc3c(c2)N=C(CC)c2ccccc2S3)CC1")
20.2
>>> value_measured("COCCCn1c(SCc2ccccc2)nc2cc(OC)c(OC)cc2c1=N")
5.9
>>> value_measured("Cc1cc(C(=O)CN2C(=O)C(=O)N(Cc3ccccc3)C2=O)c(C)n1CC1COc2ccccc2O1 (configuration not stated)")
27.8
>>> value_measured("O=C(CSC1=NC(=O)C(Cc2ccccc2)C(=O)N1)NC1CCCCC1 (configuration not stated)")
-8.3
>>> value_measured("COc1ccc(CCn2c(C)cc(C(=O)CCl)c2C)cc1OC")
59.7
>>> value_measured("O=S(=O)(NCCN1CCOCC1)c1ccc(-c2ccc(S(=O)(=O)NCCN3CCOCC3)cc2)cc1")
-11.2
>>> value_measured("COc1ccc(C(=O)NNC(=O)C(=O)/C=C(\\O)c2ccc(C)cc2)cc1")
0.6
>>> value_measured("CC(C)C[C@H](NC(=O)c1nc[nH]c1C(=O)NCc1ccccc1)C(=O)OC(C)(C)C")
-11.1
>>> value_measured("CCCCN(C)C1CCN(C(=S)Nc2ccc(OC)cc2)CC1")
-31.8

----------
# ASSAY_INFO: NOD1 signaling inhibitors, primary screen, cell-based, luminescence, uHTS (AID 1578);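 note: HEK-293T reporter cells stimulated with the NOD1 agonist gamma-tri-DAP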
# RUN_PARAMETERS: NOD1-driven NF-kB luciferase reporter cells, at 4 µM, hits give high values
Screen size: about 290,000 compounds; about 3,000 (1%) were called active. Only a selection was taken, and actives are over-represented in it overall.
METRIC_NAME: inhibition

>>> value_measured("CCOC(=O)C1=C(CN2CCCCCC2)NC(=O)NC1c1ccc2c(c1)OCO2 (stereo unspecified)")
"-36.5% (inactive)"
>>> value_measured("CCCC(=O)NC(c1cccs1)c1cc(Cl)c2cccnc2c1O (stereo unspecified)")
"55.3% (active)"
>>> value_measured("CCOc1ccc(C(Nc2cccnc2)c2cc(Cl)c3cccnc3c2O)cc1 (stereo unspecified)")
"67.5% (active)"
>>> value_measured("CCCCC(=O)NC(c1cccs1)c1cc(Cl)c2cccnc2c1O (stereo unspecified)")
"-31.4% (inactive)"
>>> value_measured("Oc1c(C(Nc2ccccn2)c2cccnc2)cc(Cl)c2cccnc12 (stereo unspecified)")
"15.5% (inactive)"
>>> value_measured("COCCn1c(-c2ccc(OC)cc2)cnc1SCC(=O)Nc1cccc2ccccc12")
"-37.9% (inactive)"

----------
# ASSAY_INFO: NOD1 signaling inhibitors, primary screen, cell-based, luminescence, uHTS (AID 1578);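 note: HEK-293T reporter cells stimulated with the NOD1 agonist gamma-tri-DAP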
# RUN_PARAMETERS: NOD1-driven NF-kB luciferase reporter cells, at 4 µM
Screen size: about 290,000 compounds; about 3,000 (1%) were called active. No stated cut-off is given here; in the data, active means inhibition mostly above about 36% (no sharp cut-off); inactive means mostly below about 34%. Many of the other results were omitted from the sample, so actives are more common in it than they were.
Outcomes: TRUE = active, FALSE = inactive

>>> answer_label("Cc1ccc(/C=C2\\SC(=S)N(c3cccnc3)C2=O)cc1")
"FALSE"
>>> answer_label("COc1ccc(OCC(=O)Nc2ccc3c(c2)nc(CCN2CCCCC2)n3C)cc1")
"FALSE"
>>> answer_label("Nc1c(Cl)ncnc1N/N=C/c1ccnc2ccccc12")
"FALSE"
>>> answer_label("COc1cc(/C=C2/C(=O)NN(c3ccccc3)C2=O)cc(Br)c1O")
"FALSE"
>>> answer_label("CC1CC(NC(=O)Cc2ccc(Br)cc2)CC(C)(C)C1 (configuration not stated)")
"FALSE"
>>> answer_label("CCOC(=O)c1c(-c2ccccc2)csc1NC(=O)c1cc(S(=O)(=O)N2CCOCC2)ccc1C")
"FALSE"
>>> answer_label("Cc1cc(/C=C2/SC(=S)N(c3ccc([N+](=O)[O-])cc3)C2=O)c(C)n1-c1cccnc1")
"TRUE"
>>> answer_label("COC(=O)c1sccc1NC(=O)CSc1ccccc1NS(=O)(=O)c1ccc(Cl)cc1")
"FALSE"
>>> answer_label("Cc1cc(/C=C2/C(=O)NN(c3ccccc3)C2=O)c(C)n1-c1cccc(O)c1")
"FALSE"
>>> answer_label("CCOC(=O)C1=C(c2ccccc2)ON(C)C1c1ccccc1 (configuration not stated)")
"FALSE"
>>> answer_label("Cc1nnn(C23C[C@@H]4C[C@@H](CC(C(=O)N5CCN(c6ccccc6)CC5)(C4)C2)C3)n1")
"FALSE"
>>> answer_label("COc1ccc(C)cc1Nc1n[n+](-c2ccccc2)c(-c2ccc(NC(C)=O)cc2)s1")
"FALSE"
>>> answer_label("CCCCNC(=S)N(C)/N=C/c1ccc(F)cc1")
"TRUE"
>>> answer_label("CN1CCN(C(c2ccc(C(F)(F)F)cc2)c2ccc3cccnc3c2O)CC1 (configuration not stated)")
"FALSE"
>>> answer_label("O=C(NC(=S)Nc1ncccn1)c1ccc(Cl)cc1Cl")
"FALSE"
>>> answer_label("Cc1ccc(CCNC(=O)C23C[C@H]4C[C@@H](C2)CC(n2nnc(C)n2)(C4)C3)cc1")
"FALSE"
>>> answer_label("Nc1c(Cl)ncnc1N/N=C/c1ccc2ccccc2n1")
"TRUE"
>>> answer_label("Fc1ccc(CNCC2CCCO2)cc1 (configuration not stated)")
"FALSE"
>>> answer_label("Cc1csc(CNC(=O)c2ccc(OC3CCN(CCc4ccccc4)CC3)cc2)n1")
"FALSE"
>>> answer_label("COCCCNC(=O)CCN1C(=O)COc2ccccc21")
"FALSE"
>>> answer_label("CN1C(=O)N(C)c2ccc(C=O)c3cccc1c23")
"FALSE"
>>> answer_label("Cc1ccc(N=Nc2[nH]c3ccccc3c2O)cc1")
"FALSE"

----------
# ASSAY_INFO: NOD1 signaling inhibitors, primary screen, cell-based, luminescence, uHTS (AID 1578);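 note: HEK-293T reporter cells stimulated with the NOD1 agonist gamma-tri-DAP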
# RUN_PARAMETERS: NOD1-driven NF-kB luciferase reporter cells, at 4 µM, hits give high values
The whole screen tested about 290,000 compounds, of which about 3,000 (1%) were called active. Only a selection was taken, and actives are over-represented in it overall.
# binarize inhibition: threshold -20% inclusive, high side satisfied, low side not satisfied

>>> answer_label("CCn1c(=N)n(CC(=O)C(C)(C)C)c2ccccc21")
"satisfied"
>>> answer_label("O=C(/C(=N\\Nc1ccccc1)Sc1nnnn1-c1ccccc1)c1ccccc1")
"satisfied"
>>> answer_label("CSc1cccc(NC(=O)C(=O)NCc2ccccc2)c1")
"satisfied"
>>> answer_label("Cc1ccccc1-c1nc(CN2CCCC2c2ccc(F)cc2)c(C)o1 (stereo unspecified)")
"not satisfied"
>>> answer_label("O=C(/C(=N\\Nc1ccc(Br)cc1)Sc1nnnn1-c1ccccc1)c1ccccc1")
"satisfied"
>>> answer_label("O=C(Nc1cnc2ccccc2c1)c1ccncc1")
"not satisfied"

----------
# ASSAY_INFO: NOD1 signaling inhibitors, primary screen, cell-based, luminescence, uHTS (AID 1578);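 note: HEK-293T reporter cells stimulated with the NOD1 agonist gamma-tri-DAP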
# RUN_PARAMETERS: NOD1-driven NF-kB luciferase reporter cells, at 4 µM, hits give high values
Among all 290,000 compounds or so, about 3,000 (1%) were called active. The entries come from a sample that favours actives as a whole.
# binarize inhibition: threshold 10% inclusive, high side 1, low side -1

>>> answer_label("COc1ccc(-c2nnc(SCC(=O)N(Cc3ccccc3)C(C)(C)C)o2)cc1OC")
1
>>> answer_label("COc1ccc(CNC(=O)CCC(=O)N2CC(C)Oc3ccccc32)cc1 (stereo not given)")
-1
>>> answer_label("COc1cc(-c2nnc(SCC(=O)N(Cc3ccccc3)C(C)(C)C)o2)cc(OC)c1OC")
1
>>> answer_label("CC(C)(CO)NS(=O)(=O)c1ccc2c(c1)oc(=O)c1cc(S(=O)(=O)NC(C)(C)CO)ccc12")
-1
>>> answer_label("COc1cc(OC)cc(-c2nnc(SCC(=O)N(Cc3ccccc3)C(C)(C)C)o2)c1")
1
